- tested on: hERG (KCNH2) (Homo sapiens, UniProt Q12809)
- Sequence (Q12809 whole entry): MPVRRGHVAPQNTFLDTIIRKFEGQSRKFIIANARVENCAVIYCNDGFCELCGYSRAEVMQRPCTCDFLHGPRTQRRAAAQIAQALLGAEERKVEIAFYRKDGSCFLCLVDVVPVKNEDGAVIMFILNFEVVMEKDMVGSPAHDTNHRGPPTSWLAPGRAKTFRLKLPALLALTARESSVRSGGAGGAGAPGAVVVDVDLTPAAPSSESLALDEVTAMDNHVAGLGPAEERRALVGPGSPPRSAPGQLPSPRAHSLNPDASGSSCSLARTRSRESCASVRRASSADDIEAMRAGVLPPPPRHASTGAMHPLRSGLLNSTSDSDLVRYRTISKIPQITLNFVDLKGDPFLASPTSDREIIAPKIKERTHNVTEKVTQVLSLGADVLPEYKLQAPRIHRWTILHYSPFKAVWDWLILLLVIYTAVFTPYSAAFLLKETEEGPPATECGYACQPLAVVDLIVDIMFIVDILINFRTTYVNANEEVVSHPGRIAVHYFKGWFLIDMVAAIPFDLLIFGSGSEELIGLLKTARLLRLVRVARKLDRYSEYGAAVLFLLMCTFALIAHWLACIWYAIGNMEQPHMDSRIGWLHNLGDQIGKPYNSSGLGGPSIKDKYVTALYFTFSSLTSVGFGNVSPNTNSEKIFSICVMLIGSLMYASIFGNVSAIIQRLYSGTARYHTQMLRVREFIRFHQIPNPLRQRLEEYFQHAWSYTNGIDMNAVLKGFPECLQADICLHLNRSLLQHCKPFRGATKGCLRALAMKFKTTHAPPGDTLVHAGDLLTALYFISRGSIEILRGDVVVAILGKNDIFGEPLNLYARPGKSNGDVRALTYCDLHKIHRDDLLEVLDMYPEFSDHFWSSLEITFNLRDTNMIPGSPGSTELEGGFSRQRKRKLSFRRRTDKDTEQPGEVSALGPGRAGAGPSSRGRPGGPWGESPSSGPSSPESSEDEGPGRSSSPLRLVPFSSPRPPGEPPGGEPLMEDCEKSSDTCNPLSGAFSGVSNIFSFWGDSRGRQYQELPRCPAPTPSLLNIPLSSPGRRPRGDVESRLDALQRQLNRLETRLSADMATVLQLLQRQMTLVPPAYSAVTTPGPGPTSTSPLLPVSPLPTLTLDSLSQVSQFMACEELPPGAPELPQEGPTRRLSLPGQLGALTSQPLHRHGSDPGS
- assay protocol: Inhibition of human ERG
measurement name: IC20

> print(dat)
                               smiles.entry  measurement.name  recorded.measurement
1  CC1(C)[C@@H]2CC[C@@]1(C)c1c2c(=O)n(-c2ccc(F)cc2F)n1Cc1ccccc1              IC20               > 30 µM
2  Cn1c2c(c(=O)n1-c1ccccc1C(F)(F)F)[C@H]1CC[C@]2(C)C1(C)C              IC20               > 30 µM

[ask] Give me measured IC20, please, for this compound: `Cn1c2c(c(=O)n1-c1cc(Cl)ccc1Cl)[C@H]1CC[C@]2(C)C1(C)C`
[reply] 51 µM

[ask] Give me measured IC20, please, for this compound: `Cn1c2c(c(=O)n1-c1ccccc1Cl)[C@H]1CC[C@]2(C)C1(C)C`
[reply] > 30 µM

---

// each record: one item and its IC50 for 11-beta-hydroxysteroid dehydrogenase 1 (Rattus norvegicus, UniProt P16232)
Report the value in nM with no unit label.

> print(dat)
                               smiles.entry  recorded.measurement
1  CC1(C)[C@@H]2CC[C@@]1(C)c1c2c(=O)n(-c2ccc(F)cc2F)n1CCc1ccccc1                    18
2  COc1cccc(-n2c(=O)c3c(n2C)[C@]2(C)CC[C@H]3C2(C)C)c1                    41
3  CCCn1c2c(c(=O)n1-c1ccccc1F)[C@H]1CC[C@]2(C)C1(C)C                   110

[ask] Fill in: IC50 on 11-beta-hydroxysteroid dehydrogenase 1 (Rattus norvegicus, UniProt P16232), entry `CC(C)n1c2c(c(=O)n1-c1ccccc1F)[C@H]1CC[C@]2(C)C1(C)C`
Sequence (P16232 whole entry): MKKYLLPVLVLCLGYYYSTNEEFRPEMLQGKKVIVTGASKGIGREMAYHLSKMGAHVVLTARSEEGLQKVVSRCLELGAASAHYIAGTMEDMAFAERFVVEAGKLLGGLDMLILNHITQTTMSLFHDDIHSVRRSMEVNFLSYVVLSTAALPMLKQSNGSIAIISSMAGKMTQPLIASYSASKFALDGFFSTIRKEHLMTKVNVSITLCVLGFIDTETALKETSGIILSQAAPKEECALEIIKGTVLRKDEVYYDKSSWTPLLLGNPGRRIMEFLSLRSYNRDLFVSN
[reply] 22

[ask] Fill in: IC50 on 11-beta-hydroxysteroid dehydrogenase 1 (Rattus norvegicus, UniProt P16232), entry `C=CCn1c2c(c(=O)n1-c1ccccc1F)[C@H]1CC[C@]2(C)C1(C)C`
[reply] 35

[ask] Fill in: IC50 on 11-beta-hydroxysteroid dehydrogenase 1 (Rattus norvegicus, UniProt P16232), entry `CCn1c2c(c(=O)n1-c1ccccc1)[C@H]1CC[C@]2(C)C1(C)C`
[reply] 18

---

- tested on: Cytochrome P450 3A4 (Homo sapiens, UniProt P08684)
- Sequence (P08684 whole entry): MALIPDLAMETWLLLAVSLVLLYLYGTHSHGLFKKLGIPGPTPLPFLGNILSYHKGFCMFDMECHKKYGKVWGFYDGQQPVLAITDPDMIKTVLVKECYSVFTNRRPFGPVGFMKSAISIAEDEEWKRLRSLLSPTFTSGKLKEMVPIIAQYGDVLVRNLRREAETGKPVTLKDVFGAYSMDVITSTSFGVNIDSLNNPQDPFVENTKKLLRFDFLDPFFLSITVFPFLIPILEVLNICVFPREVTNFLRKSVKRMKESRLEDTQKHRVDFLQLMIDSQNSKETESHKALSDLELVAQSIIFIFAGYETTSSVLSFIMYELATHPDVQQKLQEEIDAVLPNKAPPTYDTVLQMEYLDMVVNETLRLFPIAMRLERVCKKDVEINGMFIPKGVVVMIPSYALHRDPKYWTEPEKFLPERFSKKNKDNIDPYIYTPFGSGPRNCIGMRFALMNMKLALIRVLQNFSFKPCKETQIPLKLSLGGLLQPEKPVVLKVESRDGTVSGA
measurement name: IC50 (µM)
Report the value in µM with no unit label.

> print(dat)
                               smiles.entry  measurement.name  measurement.units  recorded.measurement
1  Cn1c2c(c(=O)n1Cc1ccccc1C(F)(F)F)[C@H]1CC[C@]2(C)C1(C)C              IC50                 µM                   4.8

For the next question, use this molecule.
[ask] Fill in: IC50 on Cytochrome P450 3A4 (Homo sapiens, UniProt P08684), entry `Cn1c2c(c(=O)n1-c1ccccc1C(F)(F)F)[C@H]1CC[C@]2(C)C1(C)C`
[reply] 22.6

---

- assay protocol: Oral bioavailability in rat
- Type: ADME, organism-based
- condition context: in vivo
Classification field: enter true for bioavailability values not below 30%, false for values below it.

Solved entries (count: 3):
> print(dat)
                               smiles.entry  assigned.label
1  Cn1c2c(c(=O)n1-c1ccccc1Cl)[C@H]1CC[C@]2(C)C1(C)C           false
2  CC1(C)[C@@H]2CC[C@@]1(C)c1c2c(=O)n(-c2ccccc2)n1Cc1ccccc1           false
3  Cn1c2c(c(=O)n1-c1cc(Cl)ccc1Cl)[C@H]1CC[C@]2(C)C1(C)C            true

[ask] Could you tell me if the measured bioavailability of `CC1(C)[C@@H]2CC[C@@]1(C)c1c2c(=O)n(-c2ccc(F)cc2F)n1Cc1ccccc1` reaches 30% or more?
[reply] true

[ask] Could you tell me if the measured bioavailability of `Cn1c2c(c(=O)n1-c1ccccc1C(F)(F)F)[C@H]1CC[C@]2(C)C1(C)C` reaches 30% or more?
[reply] true

[ask] Could you tell me if the measured bioavailability of `Cn1c2c(c(=O)n1Cc1ccccc1C(F)(F)F)[C@H]1CC[C@]2(C)C1(C)C` reaches 30% or more?
[reply] false

[ask] Could you tell me if the measured bioavailability of `Cn1c2c(c(=O)n1-c1ccccc1)[C@H]1CC[C@]2(C)C1(C)C` reaches 30% or more?
[reply] false
